Source of measurements: patent US20210255193A1

Target: GSTT2B Glutathione S-transferase theta-2B (Homo sapiens, UniProt P0CG30)
Construct: isoTOP-ABPP experiments performed in cell lysates (in vitro); endogenous in cells; host or cells: MDA-MB-231 soluble lysate
Sequence (P0CG30 1-244): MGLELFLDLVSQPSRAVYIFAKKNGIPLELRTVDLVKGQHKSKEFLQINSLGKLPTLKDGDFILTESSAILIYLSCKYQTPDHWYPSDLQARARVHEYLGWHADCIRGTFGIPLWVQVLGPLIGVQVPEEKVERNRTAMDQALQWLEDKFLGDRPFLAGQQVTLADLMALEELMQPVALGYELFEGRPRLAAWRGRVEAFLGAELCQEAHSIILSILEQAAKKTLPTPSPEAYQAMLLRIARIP
Test: competitive isoTOP-ABPP
Format: binding
Conditions: 50 uM, in vitro, sol, 231
Would you kindly list isoTOP-ABPP ratio (R) at liganded lysine P0CG30_K53 for each of these compounds?
Give the value as a plain number.

isoTOP-ABPP ratio (R) at liganded lysine P0CG30_K53 for O=C(Oc1ccc([N+](=O)[O-])cc1[N+](=O)[O-])C1CCN(C(=O)OCc2ccccc2)CC1 is 0.5

Entry O=C(Oc1ccc([N+](=O)[O-])cc1[N+](=O)[O-])c1ccccc1Nc1cccc(C(F)(F)F)c1 , isoTOP-ABPP ratio (R) at liganded lysine P0CG30_K53 reported as 0.6

Lab note: measured isoTOP-ABPP ratio (R) at liganded lysine P0CG30_K53 of O=C(Oc1ccc([N+](=O)[O-])cc1[N+](=O)[O-])c1ccc(Oc2ccccc2)cc1 [fragment 39, 2,4-Dinitrophenyl 4-phenoxybenzoate] was 0.7

Given item O=C(CC12CC3CC(CC(C3)C1)C2)Oc1ccc([N+](=O)[O-])cc1[N+](=O)[O-] , the value recorded as its isoTOP-ABPP ratio (R) at liganded lysine P0CG30_K53 is 0.8

Measured isoTOP-ABPP ratio (R) at liganded lysine P0CG30_K53 of O=C(Oc1ccc([N+](=O)[O-])cc1[N+](=O)[O-])C(c1ccccc1)(c1ccccc1)c1ccccc1 [fragment 42, 2,4-Dinitrophenyl 2,2,2-triphenylacetate] : 1.0

Field isoTOP-ABPP ratio (R) at liganded lysine P0CG30_K53 (entry CC(C)(C)OC(=O)NCCCC(=O)Oc1ccc([N+](=O)[O-])cc1[N+](=O)[O-] ) reads 0.5
